Target: High affinity cGMP-specific 3',5'-cyclic phosphodiesterase 9A (Homo sapiens, UniProt O76083)
Sequence (O76083 whole entry): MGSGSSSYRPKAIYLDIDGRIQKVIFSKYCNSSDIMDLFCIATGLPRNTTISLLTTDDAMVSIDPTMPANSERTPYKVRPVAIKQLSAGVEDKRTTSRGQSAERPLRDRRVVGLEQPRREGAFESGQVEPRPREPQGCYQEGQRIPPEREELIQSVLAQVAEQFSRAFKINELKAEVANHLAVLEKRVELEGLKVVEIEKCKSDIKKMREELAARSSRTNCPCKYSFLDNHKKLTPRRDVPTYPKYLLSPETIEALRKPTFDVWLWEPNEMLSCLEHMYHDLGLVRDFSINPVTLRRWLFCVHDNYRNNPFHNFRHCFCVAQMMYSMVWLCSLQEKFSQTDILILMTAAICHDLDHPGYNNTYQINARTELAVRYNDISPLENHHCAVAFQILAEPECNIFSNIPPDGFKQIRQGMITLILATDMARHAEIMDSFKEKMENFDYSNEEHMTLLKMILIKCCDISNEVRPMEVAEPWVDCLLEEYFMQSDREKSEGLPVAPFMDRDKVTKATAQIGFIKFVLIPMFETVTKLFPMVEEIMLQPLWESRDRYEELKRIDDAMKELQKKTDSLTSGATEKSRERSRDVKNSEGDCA
pIC50: −log10 of the molar value.
endpoint.name: pIC50

Can you look up the measured pIC50 of C[C@@H](NC(=O)c1cccnc1Oc1ccc(F)cc1)c1cccs1 for me?
< 4.80

Lookup COc1ccc(C2CNC(=O)C2)cc1OC1CCCC1 (configuration not stated)
< 4.80

---

The molecules below have reported IC50 for cGMP-dependent 3',5'-cyclic phosphodiesterase (Homo sapiens).

Reported IC50, molecule COc1ccc(C2CNC(=O)C2)cc1OC1CCCC1 (configuration not stated) : ____
> 16 µM

What do we get for C[C@@H](NC(=O)c1cccnc1Oc1ccc(F)cc1)c1cccs1 ?
> 16 µM

---

Kindly supply the reported pIC50 values for the records listed here.
Biological target: High affinity cAMP-specific and IBMX-insensitive 3',5'-cyclic phosphodiesterase 8B (Homo sapiens, UniProt O95263)
Sequence (O95263 whole entry): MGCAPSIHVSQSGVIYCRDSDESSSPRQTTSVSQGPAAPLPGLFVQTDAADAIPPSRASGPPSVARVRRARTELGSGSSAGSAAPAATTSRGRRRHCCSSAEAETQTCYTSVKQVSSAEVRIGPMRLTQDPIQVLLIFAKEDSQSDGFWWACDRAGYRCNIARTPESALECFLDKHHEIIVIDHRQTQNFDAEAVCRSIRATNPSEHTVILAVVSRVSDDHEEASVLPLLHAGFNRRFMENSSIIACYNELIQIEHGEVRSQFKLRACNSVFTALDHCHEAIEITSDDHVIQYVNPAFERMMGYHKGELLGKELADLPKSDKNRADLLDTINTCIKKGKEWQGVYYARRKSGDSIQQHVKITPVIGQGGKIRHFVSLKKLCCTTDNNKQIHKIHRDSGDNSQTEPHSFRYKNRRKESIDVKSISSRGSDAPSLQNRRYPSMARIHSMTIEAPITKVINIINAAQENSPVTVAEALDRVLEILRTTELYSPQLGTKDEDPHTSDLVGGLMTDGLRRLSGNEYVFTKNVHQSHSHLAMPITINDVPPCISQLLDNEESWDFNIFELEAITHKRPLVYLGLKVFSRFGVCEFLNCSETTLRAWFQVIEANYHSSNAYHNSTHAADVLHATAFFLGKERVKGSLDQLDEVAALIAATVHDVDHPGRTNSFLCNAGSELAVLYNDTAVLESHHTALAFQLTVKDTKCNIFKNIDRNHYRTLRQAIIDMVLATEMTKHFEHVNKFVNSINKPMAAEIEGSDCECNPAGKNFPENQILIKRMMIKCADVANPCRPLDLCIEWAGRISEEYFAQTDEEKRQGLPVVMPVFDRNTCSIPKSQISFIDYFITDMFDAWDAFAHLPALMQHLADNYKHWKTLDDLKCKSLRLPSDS
pIC50: −log10 of the molar value.

Quick one: pIC50 of COc1ccc(C2CNC(=O)C2)cc1OC1CCCC1 (configuration not stated) [ROLIPRAM] ?
< 4.80

And C[C@@H](NC(=O)c1cccnc1Oc1ccc(F)cc1)c1cccs1 ?
< 4.80

---

Molecular target: 3',5'-cyclic-AMP phosphodiesterase 4A (Homo sapiens, UniProt P27815)
Sequence (P27815 whole entry): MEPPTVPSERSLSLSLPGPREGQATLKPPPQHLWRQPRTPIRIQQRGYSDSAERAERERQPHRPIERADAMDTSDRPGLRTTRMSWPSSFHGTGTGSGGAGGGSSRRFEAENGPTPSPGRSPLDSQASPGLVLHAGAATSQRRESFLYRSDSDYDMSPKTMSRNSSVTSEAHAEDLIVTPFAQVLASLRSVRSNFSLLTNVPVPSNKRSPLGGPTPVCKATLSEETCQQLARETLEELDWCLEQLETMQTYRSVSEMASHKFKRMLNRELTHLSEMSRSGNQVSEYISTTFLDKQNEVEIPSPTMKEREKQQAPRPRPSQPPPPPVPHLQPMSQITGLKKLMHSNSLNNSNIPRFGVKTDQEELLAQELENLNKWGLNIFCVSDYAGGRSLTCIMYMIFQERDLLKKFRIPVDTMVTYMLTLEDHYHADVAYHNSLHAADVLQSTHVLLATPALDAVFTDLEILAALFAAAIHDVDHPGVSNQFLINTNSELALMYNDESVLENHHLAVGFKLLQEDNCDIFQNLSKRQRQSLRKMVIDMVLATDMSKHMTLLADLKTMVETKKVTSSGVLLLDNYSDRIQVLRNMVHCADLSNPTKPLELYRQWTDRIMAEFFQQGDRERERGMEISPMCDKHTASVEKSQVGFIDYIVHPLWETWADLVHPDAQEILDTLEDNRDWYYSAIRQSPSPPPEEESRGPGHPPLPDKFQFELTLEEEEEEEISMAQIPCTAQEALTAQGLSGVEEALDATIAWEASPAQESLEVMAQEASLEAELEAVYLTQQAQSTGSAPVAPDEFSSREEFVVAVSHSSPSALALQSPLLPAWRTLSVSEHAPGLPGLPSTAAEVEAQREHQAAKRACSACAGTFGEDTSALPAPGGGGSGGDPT
endpoint.name: IC50 (nM)
Dear colleague, please return just the value in nM, with no unit written.

Given C[C@@H](NC(=O)c1cccnc1Oc1ccc(F)cc1)c1cccs1 , state its recorded IC50.
107

---

Target: 3',5'-cyclic-AMP phosphodiesterase 4D (Homo sapiens)
Sequence (Q08499 whole entry): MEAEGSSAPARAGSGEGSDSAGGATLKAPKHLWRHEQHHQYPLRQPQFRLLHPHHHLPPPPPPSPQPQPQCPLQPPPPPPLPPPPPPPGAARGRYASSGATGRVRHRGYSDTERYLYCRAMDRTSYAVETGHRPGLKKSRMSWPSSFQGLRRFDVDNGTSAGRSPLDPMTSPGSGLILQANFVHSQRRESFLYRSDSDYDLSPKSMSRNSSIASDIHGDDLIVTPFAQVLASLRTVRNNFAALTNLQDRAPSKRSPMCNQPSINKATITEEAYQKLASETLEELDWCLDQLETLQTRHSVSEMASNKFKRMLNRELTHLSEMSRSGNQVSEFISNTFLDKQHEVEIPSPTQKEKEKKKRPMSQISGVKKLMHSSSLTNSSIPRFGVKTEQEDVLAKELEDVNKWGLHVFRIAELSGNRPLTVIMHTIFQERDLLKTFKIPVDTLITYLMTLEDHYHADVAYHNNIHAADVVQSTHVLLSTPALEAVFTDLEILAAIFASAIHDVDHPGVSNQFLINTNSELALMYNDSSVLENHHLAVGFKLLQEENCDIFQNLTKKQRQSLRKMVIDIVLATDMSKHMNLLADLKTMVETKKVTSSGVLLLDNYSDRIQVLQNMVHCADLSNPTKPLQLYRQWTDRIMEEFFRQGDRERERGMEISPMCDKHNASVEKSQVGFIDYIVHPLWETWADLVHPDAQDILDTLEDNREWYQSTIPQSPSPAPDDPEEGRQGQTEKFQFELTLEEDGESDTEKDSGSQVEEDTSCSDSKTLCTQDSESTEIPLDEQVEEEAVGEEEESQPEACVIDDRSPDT
Experiment: Inhibition of PDE4D
endpoint.name: IC50 (nM)
Just the number please, in nM, no unit attached.

Name the recorded IC50 for C[C@@H](NC(=O)c1cccnc1Oc1ccc(F)cc1)c1cccs1 .
4

---

Molecular target: 3',5'-cyclic-AMP phosphodiesterase 4D (Homo sapiens)
Assay: Inhibition of release of LTE4 in human whole blood
Assay type: functional, tissue-based
endpoint.name: pIC50
# pIC50 = -log10(concentration in molar units)

# value lookup — system 3',5'-cyclic-AMP phosphodiesterase 4D (Homo sapiens), readout pIC50, item C[C@@H](NC(=O)c1cccnc1Oc1ccc(F)cc1)c1cccs1
8.70

---

Biological target: Dual 3',5'-cyclic-AMP and -GMP phosphodiesterase 11A (Homo sapiens, UniProt Q9HCR9)
Sequence (Q9HCR9 whole entry): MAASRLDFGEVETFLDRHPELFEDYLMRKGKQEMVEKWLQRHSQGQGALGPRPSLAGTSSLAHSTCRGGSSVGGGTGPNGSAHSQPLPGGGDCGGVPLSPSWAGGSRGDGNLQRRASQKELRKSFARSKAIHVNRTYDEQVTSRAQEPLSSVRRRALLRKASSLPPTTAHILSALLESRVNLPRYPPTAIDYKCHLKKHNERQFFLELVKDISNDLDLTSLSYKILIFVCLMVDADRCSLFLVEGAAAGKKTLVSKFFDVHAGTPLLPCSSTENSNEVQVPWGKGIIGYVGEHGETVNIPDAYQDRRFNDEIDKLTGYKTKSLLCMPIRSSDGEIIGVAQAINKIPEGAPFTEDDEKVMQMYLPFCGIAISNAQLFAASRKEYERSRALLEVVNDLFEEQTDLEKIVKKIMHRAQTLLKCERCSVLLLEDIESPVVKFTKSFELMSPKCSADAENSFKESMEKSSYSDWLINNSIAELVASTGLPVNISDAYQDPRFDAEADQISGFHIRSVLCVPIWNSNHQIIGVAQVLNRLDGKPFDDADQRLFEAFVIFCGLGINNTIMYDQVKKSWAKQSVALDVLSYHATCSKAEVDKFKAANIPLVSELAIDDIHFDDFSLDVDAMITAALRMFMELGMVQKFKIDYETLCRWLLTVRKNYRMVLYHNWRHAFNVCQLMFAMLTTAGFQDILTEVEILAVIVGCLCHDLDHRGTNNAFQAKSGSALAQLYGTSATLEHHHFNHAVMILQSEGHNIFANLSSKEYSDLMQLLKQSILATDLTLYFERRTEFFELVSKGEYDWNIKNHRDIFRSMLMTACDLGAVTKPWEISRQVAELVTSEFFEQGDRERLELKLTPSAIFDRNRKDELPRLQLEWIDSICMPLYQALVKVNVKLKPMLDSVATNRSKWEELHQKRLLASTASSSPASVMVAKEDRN
endpoint.name: IC50

Fill in: IC50 of COc1ccc(C2CNC(=O)C2)cc1OC1CCCC1 (stereo unspecified) is ___
> 16 µM

---

Biological target: 3',5'-cyclic-AMP phosphodiesterase 4B (Homo sapiens, UniProt Q07343)
Sequence (Q07343 whole entry): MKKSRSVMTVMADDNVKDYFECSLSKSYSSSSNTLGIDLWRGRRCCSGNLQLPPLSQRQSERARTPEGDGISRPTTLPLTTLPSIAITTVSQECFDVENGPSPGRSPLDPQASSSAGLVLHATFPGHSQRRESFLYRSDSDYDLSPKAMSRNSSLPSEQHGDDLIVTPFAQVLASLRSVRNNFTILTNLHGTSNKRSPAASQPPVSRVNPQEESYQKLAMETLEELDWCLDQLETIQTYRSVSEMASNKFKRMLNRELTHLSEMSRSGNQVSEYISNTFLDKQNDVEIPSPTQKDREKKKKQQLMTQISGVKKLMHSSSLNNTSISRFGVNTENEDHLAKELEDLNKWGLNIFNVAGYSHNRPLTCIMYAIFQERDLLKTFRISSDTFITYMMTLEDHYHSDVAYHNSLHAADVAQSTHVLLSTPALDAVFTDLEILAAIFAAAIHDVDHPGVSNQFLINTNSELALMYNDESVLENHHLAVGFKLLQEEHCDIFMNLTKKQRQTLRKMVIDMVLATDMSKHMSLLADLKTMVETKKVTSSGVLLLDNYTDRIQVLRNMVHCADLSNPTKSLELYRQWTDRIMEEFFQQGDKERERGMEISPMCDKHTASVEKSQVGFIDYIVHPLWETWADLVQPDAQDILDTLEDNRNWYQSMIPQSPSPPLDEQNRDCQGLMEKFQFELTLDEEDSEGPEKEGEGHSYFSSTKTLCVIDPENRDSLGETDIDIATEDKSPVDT
Assay: Inhibition of PDE4B
endpoint.name: pIC50
Please treat pIC50 as minus the base-10 logarithm of the molar concentration.

# query: pIC50 of entry C[C@@H](NC(=O)c1cccnc1Oc1ccc(F)cc1)c1cccs1
6.73

---

Molecular target: UniProt Q08499
Assay: cAMP elevation in U937 cells
Assay type: functional, cell-based, U-937
endpoint.name: pEC50
Entry type: numeric. Quantity: pEC50, the -log10 of concentration in molar units.

Would you kindly share the measured pEC50 for C[C@@H](NC(=O)c1cccnc1Oc1ccc(F)cc1)c1cccs1 ?
7.66
